target: α4β7 integrin (Homo sapiens (Human), UniProt P13612+P26010); experiment: α4β7 Integrin Cell Capture Assay; format: cell-based; settings: Table 2; capture of α4β7 expressing RPM18866 cells on MadCAM-1 extracellular domain-coated plate
Sequence (P13612 34-1032): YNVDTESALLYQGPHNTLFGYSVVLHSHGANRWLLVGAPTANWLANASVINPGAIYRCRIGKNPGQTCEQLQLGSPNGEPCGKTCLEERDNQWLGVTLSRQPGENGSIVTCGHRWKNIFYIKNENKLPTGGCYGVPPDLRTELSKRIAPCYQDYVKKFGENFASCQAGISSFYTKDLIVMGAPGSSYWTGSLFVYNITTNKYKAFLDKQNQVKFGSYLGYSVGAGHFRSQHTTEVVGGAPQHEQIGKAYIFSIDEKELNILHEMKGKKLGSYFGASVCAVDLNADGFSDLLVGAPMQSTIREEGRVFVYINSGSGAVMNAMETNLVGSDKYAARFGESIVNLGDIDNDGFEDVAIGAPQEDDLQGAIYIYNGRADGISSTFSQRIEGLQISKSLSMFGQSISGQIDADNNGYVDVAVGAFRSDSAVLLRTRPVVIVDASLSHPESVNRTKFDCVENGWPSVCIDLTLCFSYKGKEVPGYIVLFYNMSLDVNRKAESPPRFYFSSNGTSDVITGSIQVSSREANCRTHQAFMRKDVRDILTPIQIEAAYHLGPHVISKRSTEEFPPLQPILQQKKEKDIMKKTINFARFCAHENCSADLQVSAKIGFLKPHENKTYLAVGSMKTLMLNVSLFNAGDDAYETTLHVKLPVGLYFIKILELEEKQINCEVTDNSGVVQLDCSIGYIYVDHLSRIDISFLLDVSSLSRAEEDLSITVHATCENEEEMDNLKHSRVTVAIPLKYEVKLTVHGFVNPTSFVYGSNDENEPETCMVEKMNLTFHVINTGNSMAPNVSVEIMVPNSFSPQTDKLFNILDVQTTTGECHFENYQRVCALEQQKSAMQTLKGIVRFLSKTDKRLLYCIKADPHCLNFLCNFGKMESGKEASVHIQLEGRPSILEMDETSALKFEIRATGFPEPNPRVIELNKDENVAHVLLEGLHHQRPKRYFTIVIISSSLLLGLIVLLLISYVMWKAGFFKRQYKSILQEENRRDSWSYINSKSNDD
Sequence (P26010 20-798): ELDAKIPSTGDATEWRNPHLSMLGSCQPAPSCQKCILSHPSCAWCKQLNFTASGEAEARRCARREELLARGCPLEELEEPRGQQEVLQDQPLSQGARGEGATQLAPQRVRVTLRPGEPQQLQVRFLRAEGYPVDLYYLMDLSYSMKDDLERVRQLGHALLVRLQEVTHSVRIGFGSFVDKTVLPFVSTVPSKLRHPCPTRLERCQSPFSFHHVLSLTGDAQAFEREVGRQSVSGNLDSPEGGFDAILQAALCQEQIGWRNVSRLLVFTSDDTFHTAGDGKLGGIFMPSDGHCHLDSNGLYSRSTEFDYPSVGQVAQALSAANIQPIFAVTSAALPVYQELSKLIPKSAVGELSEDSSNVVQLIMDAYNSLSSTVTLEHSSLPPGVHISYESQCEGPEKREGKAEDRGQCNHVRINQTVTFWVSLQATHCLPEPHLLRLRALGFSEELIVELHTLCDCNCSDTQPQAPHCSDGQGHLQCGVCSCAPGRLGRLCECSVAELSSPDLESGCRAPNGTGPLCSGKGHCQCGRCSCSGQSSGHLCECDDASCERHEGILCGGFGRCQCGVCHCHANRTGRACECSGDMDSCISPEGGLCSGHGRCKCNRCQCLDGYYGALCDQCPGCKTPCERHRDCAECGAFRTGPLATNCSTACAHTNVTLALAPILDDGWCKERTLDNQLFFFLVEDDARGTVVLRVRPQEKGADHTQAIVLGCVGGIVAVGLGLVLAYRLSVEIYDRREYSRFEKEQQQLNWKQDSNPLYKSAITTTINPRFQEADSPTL
measurement.name: EC50 (nM)

• CC[C@@H](Nc1cc(F)c(C(=O)N[C@@H](Cc2ccc(-c3nc(C)cc(OC)c3C(F)(F)F)c3ncccc23)C(=O)O)c(F)c1)C(F)(F)F = 4.8
• CC1(O)CCN(c2cc(F)c(C(=O)N[C@@H](Cc3ccc(-c4ccc(C#N)cc4Cl)c4ncccc34)C(=O)O)c(F)c2)CC1 = 31
• CC[C@@H](Nc1cc(F)c(C(=O)N[C@@H](Cc2ccc(-c3nccc(C)c3C)c3ncccc23)C(=O)O)c(F)c1)C(F)(F)F = 11.4
• Cc1cc(C(F)(F)F)c(-c2ccc(C[C@H](NC(=O)c3c(F)cc(N4CC[C@@H]4C(F)(F)F)cc3F)C(=O)O)c3cccnc23)c(=O)n1C = 2.9
• Cn1c(=O)c(-c2ccc(C[C@H](NC(=O)c3c(F)cc(N4CCOC[C@H]4C(F)(F)F)cc3F)C(=O)O)c3cccnc23)cc2cnccc21 = 1.4
• CC[C@@H](Nc1cc(F)c(C(=O)N[C@@H](Cc2ccc(-c3cc(N(C)C)c(C)n(C)c3=O)c3ncccc23)C(=O)O)c(F)c1)C(F)(F)F = 4.3
